The listing below reports IC50 for molecules tested on SARM1 (50-724) (Homo sapiens (Human), UniProt Q6SZW1).
Sequence (Q6SZW1 50-724): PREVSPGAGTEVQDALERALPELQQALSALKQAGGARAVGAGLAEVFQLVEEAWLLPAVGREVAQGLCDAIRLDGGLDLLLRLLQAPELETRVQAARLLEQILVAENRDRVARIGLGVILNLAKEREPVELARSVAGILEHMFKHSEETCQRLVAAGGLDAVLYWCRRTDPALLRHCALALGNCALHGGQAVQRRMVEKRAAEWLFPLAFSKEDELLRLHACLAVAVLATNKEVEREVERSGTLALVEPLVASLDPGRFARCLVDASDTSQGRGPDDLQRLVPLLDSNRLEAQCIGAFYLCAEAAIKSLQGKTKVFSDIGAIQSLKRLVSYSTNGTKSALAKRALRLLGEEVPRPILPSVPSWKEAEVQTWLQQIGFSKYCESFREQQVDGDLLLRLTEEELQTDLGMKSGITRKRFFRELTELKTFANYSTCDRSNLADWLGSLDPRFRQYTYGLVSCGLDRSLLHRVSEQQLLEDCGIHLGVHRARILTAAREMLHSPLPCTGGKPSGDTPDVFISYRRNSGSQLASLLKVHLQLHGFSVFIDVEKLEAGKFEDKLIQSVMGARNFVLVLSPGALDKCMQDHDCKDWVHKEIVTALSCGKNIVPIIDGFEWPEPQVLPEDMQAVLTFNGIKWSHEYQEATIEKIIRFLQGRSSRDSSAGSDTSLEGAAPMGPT

Answered cases to consult:
Cc1ccncc1-c1cc(Cl)c2[nH]ncc2c1 ... 5 to 15 µM
N#Cc1cccc(Nc2cncc(-c3ccc4[nH]c(=O)oc4c3)c2)c1 ... < 5 µM
Cc1cc(-c2cnccc2C)ccc1O ... < 5 µM
Cc1ccncc1-c1ccc2c(c1)OCC(=O)N2 ... 5 to 15 µM
Cc1ccncc1-c1ccc2nc(N)ncc2c1 ... 15 to 30 µM
Cc1ccncc1-c1ccc2c(c1)CC(=O)N2 ... < 5 µM

Would you kindly look at the next entry?
Task item: Please report the measured IC50 for Cc1ccncc1-c1ccc2c(c1F)NC(=O)C2=O tested on SARM1 (50-724) (Homo sapiens (Human), UniProt Q6SZW1).
Reply: 5 to 15 µM

The reported measurements were obtained from patent US20250236613A1.
